# measured.on: Tau
# test.name: rat primary cortical neurons, FLIPR, 25 uM ASO
Bases are written 5' to 3'; sugars and linkages follow in the same order, as letters with counts (s phosphorothioate, o phosphodiester; PS: all linkages phosphorothioate). The collection does not say whether C is 5-methylated. l = locked nucleic acid (LNA); d = 2'-deoxy (DNA)
# calcium oscillation score per record follows
measured.endpoint: calcium oscillation score

[[record]]
query_sequence = "TTATTTCCAAATTCACTTTT (sugars lllldddddddddldlddll, PS)"
reported = "102 % of control"

[[record]]
query_sequence = "CTTTATTTCCAAATTCAC (sugars l3 d11 l1 d1 l2, PS)"
reported = "132 % of control"

[[record]]
query_sequence = "CACCTTGCTCAGGTCA (sugars l3 d10 l3, PS)"
reported = "134 % of control"

[[record]]
query_sequence = "GCGGCGCAGGCGCGAG (sugars l3 d10 l3, PS)"
reported = "73.6 % of control"

[[record]]
query_sequence = "TATTTCCAAATTCACTTTTA (sugars llldlddddddddddldlll, PS)"
reported = "129 % of control"

[[record]]
query_sequence = "CCATTATCTCACTGCTT (sugars l3 d12 l2, PS)"
reported = "29.3 % of control"

[[record]]
query_sequence = "ATCACAAACCCTGCTTGGCC (sugars l3 d14 l3, PS)"
reported = "55.2 % of control"

[[record]]
query_sequence = "CCATTTTCCATATAATTTTA (sugars l3 d14 l3, PS)"
reported = "56.3 % of control"

[[record]]
query_sequence = "ACATGCTAATCAATAC (sugars l4 d8 l4, PS)"
reported = "57.8 % of control"

[[record]]
query_sequence = "GCAAACCACTCTTATT (sugars l4 d10 l2, PS)"
reported = "95.4 % of control"

[[record]]
query_sequence = "CTACCATGTCGATG (sugars l3 d8 l3, PS)"
reported = "6.9 % of control"

[[record]]
query_sequence = "ACAGCCTCATAAACCT (sugars l4 d10 l2, PS)"
reported = "66.8 % of control"

[[record]]
query_sequence = "CTTAATTCATTTAATTCTCT (sugars l3 d13 l4, PS)"
reported = "90.1 % of control"

[[record]]
query_sequence = "TTTTTATTCATAACTTTTCA (sugars l4 d12 l4, PS)"
reported = "56.4 % of control"

[[record]]
query_sequence = "CATTTTTTATTCATAACTTT (sugars l4 d12 l4, PS)"
reported = "59.4 % of control"

[[record]]
query_sequence = "CCCGGAACTCTCAACTCCTC (sugars l3 d14 l3, PS)"
reported = "18.1 % of control"

[[record]]
query_sequence = "AATATCCTTACCATCCTATC (sugars l2 d14 l4, PS)"
reported = "59.1 % of control"

[[record]]
query_sequence = "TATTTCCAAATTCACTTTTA (sugars lllddldddddddddlldll, PS)"
reported = "127 % of control"

[[record]]
query_sequence = "CCTTTTTCCATCTTACTAAT (sugars l3 d14 l3, PS)"
reported = "54.7 % of control"

[[record]]
query_sequence = "CAGCGTGATCTTCCAT (sugars l3 d10 l3, PS)"
reported = "13.4 % of control"

[[record]]
query_sequence = "GACCCTTTTTCTTAAC (sugars l4 d10 l2, PS)"
reported = "59.1 % of control"

[[record]]
query_sequence = "TTTAACTCAAATCAATTCT (sugars l4 d11 l4, PS)"
reported = "72.6 % of control"

[[record]]
query_sequence = "ACCAACTTTCATCTACTTTT (sugars l3 d15 l2, PS)"
reported = "90.5 % of control"

[[record]]
query_sequence = "ATTATTTACACTGTCCT (sugars l2 d11 l4, PS)"
reported = "78.1 % of control"

[[record]]
query_sequence = "ATACAGTTGGCCCTACCATA (sugars l3 d14 l3, PS)"
reported = "30.9 % of control"

[[record]]
query_sequence = "AAACAGGATACAGT (sugars l3 d8 l3, PS)"
reported = "109 % of control"

[[record]]
query_sequence = "CAAACAGGATACAGT (sugars l3 d9 l3, PS)"
reported = "49.6 % of control"

[[record]]
query_sequence = "GTCCCGAGCCAAAGC (sugars l3 d9 l3, PS)"
reported = "31.3 % of control"

[[record]]
query_sequence = "CCCTAAAGTCCCAGGT (sugars l3 d10 l3, PS)"
reported = "76.2 % of control"

[[record]]
query_sequence = "AATAAGAAAGGAACGC (sugars l5 d7 l4, PS)"
reported = "121 % of control"

[[record]]
query_sequence = "TATTGCTTTCCAATTCCC (sugars l4 d12 l2, PS)"
reported = "93.2 % of control"

[[record]]
query_sequence = "ACAGCCTCATAAACCTA (sugars l3 d11 l3, PS)"
reported = "59.4 % of control"

[[record]]
query_sequence = "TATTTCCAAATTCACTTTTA (sugars llldldddddddddllddll, PS)"
reported = "135 % of control"

[[record]]
query_sequence = "CCAGCGTGATCTTC (sugars l3 d8 l3, PS)"
reported = "120 % of control"

[[record]]
query_sequence = "ACCCCATTTTTGACATA (sugars l3 d12 l2, PS)"
reported = "73.1 % of control"

[[record]]
query_sequence = "ACGTTGCTAAGATCCA (sugars l3 d10 l3, PS)"
reported = "18.1 % of control"

[[record]]
query_sequence = "AACCAACTTTCATCTACTTT (sugars l4 d14 l2, PS)"
reported = "63 % of control"

[[record]]
query_sequence = "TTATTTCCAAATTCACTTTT (sugars lllldddddddddlddldll, PS)"
reported = "96.5 % of control"

[[record]]
query_sequence = "TAAATACATCAATAGAAGGC (sugars l3 d14 l3, PS)"
reported = "50.4 % of control"

[[record]]
query_sequence = "GGTTTATGATGGATGTTGCC (sugars l3 d14 l3, PS)"
reported = "26.6 % of control"

[[record]]
query_sequence = "AACATATATATTACACTTC (sugars l4 d11 l4, PS)"
reported = "111 % of control"

[[record]]
query_sequence = "AACCAACTTTCATCTACT (sugars l4 d11 l3, PS)"
reported = "73.5 % of control"

[[record]]
query_sequence = "ACTTTTGAACCCATTCC (sugars l2 d12 l3, PS)"
reported = "83.6 % of control"

[[record]]
query_sequence = "CGAACTGCGAGGAGCAGCTG (sugars l3 d14 l3, PS)"
reported = "0 % of control"

[[record]]
query_sequence = "TTTAGCAGAGGAACGT (sugars l3 d10 l3, PS)"
reported = "15.6 % of control"

